Assay: Acumen qHTS Assay for Inhibitors of the mTORC1 Signaling Pathway in MEF (Tsc2-/-, p53-/-) Cells: Sytravon; also: nearly all actives have a fitted effect of over 50% in size
Details: phospho-rpS6 immunofluorescence/PI, 24 h; series mostly up to 38.3 µM
Description: NIH Molecular Libraries Probe Production Centers Network [MLPCN] NIH Chemical Genomics Center [NCGC] […] NCGC Acumen Assay Protocol Summary: For quantitative high throughput analysis of mTORC1 signaling, we developed a cell-based assay for immuno-fluorescence based detection of rpS6 phosphorylation on the Acumen Explorer that will be used a platform for the primary small molecule screen. […]
Hit rate of the full screen: of about 44,000 compounds, about 340 (0.77%) were called active. Roughly 5% stayed inconclusive and do not appear here. Calls follow the shape of the dose curve; as a rule, active = well fitted inhibition curve with a large enough effect; inconclusive = small, poorly fitted or top-dose-only effect; inactive = flat fitted curve, though single readings scatter. The full list was thinned out, with actives kept by preference.
Log the outcome using a class from active, inactive

Here are 10 compounds together with their reported answers.
INSERT INTO assay_data (compound, class_name) VALUES
  ('O=C1CSC2(C(=O)N(Cc3ccccc3)c3ccccc32)N1c1cccc(F)c1 (configuration not stated)', 'inactive'),
  ('COc1ccc(-c2nc3nc(C)cc(C)n3c2Nc2c(C)cccc2C)cc1', 'inactive'),
  ('O=C(CC(NCc1cccnc1)C(=O)O)Nc1ccc(O)cc1 (configuration not stated)', 'active'),
  ('CC(C)CCN(C(=O)Nc1ccc(Cl)c(Cl)c1)C(C)c1cccs1 (configuration not stated)', 'inactive'),
  ('CCCCOc1ccc(CN2C(=O)C(=O)c3cc(Br)cc(C)c32)cc1OC', 'active'),
  ('O=C1CN(C(=O)Nc2ccccc2C(F)(F)F)C(c2ccccc2)c2c(sc3c2CCCC3)N1 (configuration not stated)', 'inactive'),
  ('Cn1nnnc1SCCCNCc1cccc(OCc2ccc(Cl)cc2)c1', 'active'),
  ('Cc1cc(C)c2oc(-c3cccc(NC(=O)c4cccc(F)c4)c3C)nc2c1', 'inactive'),
  ('COc1ccc(-c2nnc(SCC(=O)Nc3ccccc3C)o2)cc1OC', 'inactive'),
  ('COc1ccc(Br)cc1CNC(=O)c1cc(=O)[nH]c2ccc(S(=O)(=O)N3CCCC3)cc12', 'inactive');

Problem: In this assay, the call recorded for Cn1nnnc1SCCCNCc1ccc(Cl)cc1 was what?
Result: inactive

Problem: Field: outcome | Entry: CCc1cccc(C)c1Nc1c(-c2ccc(N(C)C)cc2)nc2ncccn12
Result: active

Problem: Kindly provide the recorded test outcome for the following compound: O=C(c1cnn(-c2ccc(F)cc2)c1-n1cccc1)N1CCN(c2ccc(F)cc2)CC1
Result: inactive

Problem: Hey, what did the test say about CCc1ccc(CNC(=O)C2CCN(c3nn4cc(-c5ccc(F)cc5)nc4s3)CC2)cc1 ?
Result: inactive

---

Test: Acumen qHTS Assay for Inhibitors of the mTORC1 Signaling Pathway in MEF (Tsc2-/-, p53-/-) Cells: Sytravon; also: nearly all actives have a fitted effect of over 50% in size
Conditions: phospho-rpS6 immunofluorescence/PI, 24 h; series mostly up to 38.3 µM
Description: NIH Molecular Libraries Probe Production Centers Network [MLPCN] NIH Chemical Genomics Center [NCGC] […] NCGC Acumen Assay Protocol Summary: For quantitative high throughput analysis of mTORC1 signaling, we developed a cell-based assay for immuno-fluorescence based detection of rpS6 phosphorylation on the Acumen Explorer that will be used a platform for the primary small molecule screen. […]
The whole screen tested about 44,000 compounds, of which about 340 (0.77%) were called active. Not shown: some 5% with an inconclusive outcome. The call rests on the fitted dose curve; in most records, active means well fitted inhibition curve with a large enough effect; inconclusive means small, poorly fitted or top-dose-only effect; inactive means flat fitted curve, though single readings scatter. This is one part of a sample in which actives are shown more often than they occur.
Select the correct class. Options are true for active, false for inactive and nothing else.

// known answers, use as guide
INSERT INTO results (compound, class_name) VALUES
  ('Cc1nn2c(=O)cc(COC(=O)c3ccccc3NC(=O)COc3ccccc3C)nc2s1', 'false'),
  ('CCn1c2ccccc2c2cc(NC(=O)COc3ccc(C)cc3C)ccc21', 'false'),
  ('CCCn1ccc2c(OCC(=O)NCc3ccc(F)cc3)cccc2c1=O', 'false'),
  ('CCC(=O)NCc1cc(-c2nn(C)c(=O)c3ccccc23)ccc1OC', 'false'),
  ('O=C(C1CCCN(S(=O)(=O)c2cccc3nonc23)C1)N1CCN(c2ccccc2F)CC1 (stereo unspecified)', 'false');

Problem: Just curious, what result did O=C(CCS(=O)(=O)c1ccccc1)N(Cc1cccnc1)c1nc2c(F)cccc2s1 get here?
Result: true

Problem: Identify the outcome logged in this assay for the compound shown: O=C(CCSCc1ccccc1F)N1CCN(c2ccc(Cl)cc2)CC1
Result: false

Problem: How was CSc1oc(-c2cccs2)nc1S(=O)(=O)c1ccc(Br)cc1 classified in this test?
Result: false

Problem: Entry Cc1ccc(S(=O)(=O)c2nnn3c2nc(N2CCN(c4ccccc4F)CC2)c2cc(Cl)ccc23)cc1C : call = ?
Result: false

Problem: What classification did CCCCS(=O)(=O)c1oc(-c2cccs2)nc1S(=O)(=O)c1ccccc1 end up with in this test?
Result: true

Problem: Short answer needed: outcome of this test for Cc1cccc(N2CCN(C(=O)c3ccc4c(c3)CCN4S(=O)(=O)c3ccccc3)CC2)c1C ?
Result: false

Problem: Give the logged outcome of this assay for the following compound: Cc1ccc(CSc2oc(-c3cccs3)nc2S(=O)(=O)c2ccc(C)cc2)cc1
Result: false
